- MEASUREMENT TARGET: PD-1/PD-L1 (Homo sapiens (Human))
- Sequence (Q9NZQ7 19-238): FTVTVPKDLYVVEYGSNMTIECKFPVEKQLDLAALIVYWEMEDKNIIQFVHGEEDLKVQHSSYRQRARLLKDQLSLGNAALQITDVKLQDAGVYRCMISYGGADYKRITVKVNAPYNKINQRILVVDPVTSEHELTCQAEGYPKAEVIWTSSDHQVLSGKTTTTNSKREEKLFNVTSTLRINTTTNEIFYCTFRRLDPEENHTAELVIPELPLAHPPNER
- EXPERIMENT SUMMARY: Homogeneous Time-Resolved Fluorescence (HTRF) PD-1/PD-L1 binding assay
- TEST PARAMETERS: recombinant human PD-1 and PD-L1
ATTRIBUTE MEASURED: IC50 (nM)
# output: bare number, implied unit nM

Challenge: Fill in the blank: the reported IC50 of `Cc1c(NC(=O)c2nc3c(n2C)CCN(CCC24CCC(C(=O)O)(CC2)C4)C3)cccc1-c1cccc(Nc2nc(C(F)F)nc3cc(CN4CC[C@](C)(O)C4)cnc23)c1C` is ____.
Response given: 1.7

Challenge: Data request, read-out IC50, for `Cc1c(-c2nc3cc(CN4CC[C@@H](O)C4)cc(C#N)c3o2)cccc1-c1cccc(NC(=O)c2nc3c(n2C)CCN(CC24CCC(C(=O)O)(CC2)C4)C3)c1Cl`
Response given: 2.3

Challenge: Data request, read-out IC50, for `Cc1c(NC(=O)c2nc3c(n2C)CCN(CCC24CCC(C(=O)O)(CC2)C4)C3)cccc1-c1cccc(Nc2nc(C(F)F)nc3cc(CN4CC[C@H](O)C4)cnc23)c1C`
Response given: 1.5

* * *

- Test system: U2OS/PD-L1 cells and Jurkat-PD-1-SHP cells
- EXPERIMENT SUMMARY: Src homology region 2 domain-containing phosphatase (SHP) assay
- Assay type: cell-based
- TEST PARAMETERS: Homo sapiens, U2OS; PathHunter chemiluminescence, 2 hours
ATTRIBUTE MEASURED: IC50 (nM)
# output: bare number, implied unit nM

# GIVEN SMILES, MEASUREMENT TARGET, UNITS LABEL, ASSAY RESULT
measured = [
    ("Cc1c(Nc2nc(C(F)F)nc3cc(CN4CCC[C@H]4C)cnc23)cccc1-c1cccc(NC(=O)c2nc3c(n2C)CCN(CCC24CCC(C(=O)O)(CC2)C4)C3)c1Cl", "U2OS/PD-L1 cells and Jurkat-PD-1-SHP cells", "nM", 4),
    ("Cc1c(Nc2nc(C(F)F)nc3cc(CN4C[C@H](O)C[C@@H]4C)cnc23)cccc1-c1cccc(NC(=O)c2nc3c(n2C)CCN(CCC24CCC(C(=O)O)(CC2)C4)C3)c1Cl", "U2OS/PD-L1 cells and Jurkat-PD-1-SHP cells", "nM", 4),
]

Challenge: Given `Cc1c(Nc2nc(C(F)F)nc3cc(CN4C[C@H](O)C[C@H]4C)cnc23)cccc1-c1cccc(NC(=O)c2nc3c(n2C)CCN(CCC24CCC(C(=O)O)(CC2)C4)C3)c1Cl` , state its recorded IC50.
Response given: 3
